Hello, the source for this data is the supplement of paper PMC11451515, in case you need it.

tested on: SEM cells; assay: cell viability relative to DMSO control; higher = less cytotoxic; details: RPMI 5 mM glucose + 10% FBS; 48 h; 15.4 µM
Field: label. Allowed values: 1.0 (cell viability < 80%) or 0.0 (cell viability >= 80%).

Examples with answers:
CC[C@H](NC1=C2N=C[NH]C2=NC=N1)C/3=N/C4=C(C(=CC=C4)F)C(=O)N3C5=CC=CC=C5 | 1.0
CCC1(c2ccccc2)C(=O)NCNC1=O | 0.0

Record O=C(C=CC#Cc1cccc(N[S+](=O)([O-])c2ccccc2)c1)NO : is its cell viability strictly below 80%?
1.0

* * *

tested on: P12-Ichikawa; assay: cell viability relative to DMSO control; higher = less cytotoxic; details: RPMI 5 mM glucose + 10% FBS; 48 h; 46.1 µM
cell viability overview
Write it as a number; the unit % goes unstated.

OC[C@H]1O[C@H]([C@H](O)[C@@H]1O)N2\C=C/C(=O)NC2=O | 90.8
CN1CCN(C2=Nc3cc(Cl)ccc3Nc3ccccc32)CC1 | 108
Cc1c(C)n(Cc2ccc(-c3ccccc3C(=O)O)cc2)c2ccc(C(=O)N[C@@H](C)c3ccc([N+](=O)[O-])cc3)cc12 | 25.1
Cc1nn(Cc2ccccc2Cl)c(C)c1CN(C)CC(O)COc1ccc(Cl)cc1 (stereo not drawn) | 42.8
FC1=CC=C(C=C1)N2/C=C\C=C(C(=O)NC3=CC=C(OC4=C5C=C[NH]C5=NC=C4)C(=C3)F)/C2=O | 111
Cc1ccccc1C(=O)c1ccc(Nc2ccc(Br)cc2N)cc1Cl | 53.7

Supply cell viability measured with P12-Ichikawa for C[C@@H]1COCCN1c1cc(C2([S@+](C)(=N)[O-])CC2)nc(-c2ccnc3[nH]ccc23)n1 .
7.94

Please respond with reported cell viability (system P12-Ichikawa) for O=C(O)CCC1CCC(c2cc(F)ccc2F)([S+](=O)([O-])c2ccc(Cl)cc2)CC1 (stereo not drawn) .
9.78

* * *

tested on: SEM cells; test: cell viability relative to DMSO control; higher = less cytotoxic; settings: RPMI 5 mM glucose + 10% FBS; 48 h; 0.19 µM
Measured cell viability accompanies every entry in the list below.
API: value field is a number in %; no unit string.

Take a look at these entries with their results.
N#CCNC(=O)c1ccc(-c2ccnc(Nc3ccc(N4CCOCC4)cc3)n2)cc1 | 116
CC(C)(O)CC[C@@H](O)[C@](C)(O)[C@H]1CC[C@@]2(O)C/3=C/C(=O)[C@@H]4C[C@@H](O)[C@@H](O)C[C@]4(C)[C@H]3CC[C@]12C | 98.8
O=C(O)C1(Cc2cccc(Nc3nccs3)n2)CCC(Oc2cccc(Cl)c2F)CC1 (stereo not given) | 96.5
CNCCCC12CCC(c3ccccc31)c1ccccc12 | 104
C[C@]12COC(=O)C[C@@H]1CC[C@@H]1[C@@H]2CC[C@@]2(C)[C@H]1CC[C@]2(C)O | 106
COC(=O)Nc1nc2cc(C(=O)c3ccccc3)ccc2[nH]1 | 18
N[S+]([O-])(=O)C1=CC=C(NC/2=C/C(=O)C3=CC=CC=C3C2=O)C=C1 | 83.9
CNc1nc(Nc2ccc(C(=O)N3CCOCC3)cc2OC)ncc1Cl | 107
CC(=O)O[C@@]1(CC[C@H]2[C@@H]3\C=C(Cl)/C4=C/C(=O)[C@@H]5C[C@@H]5[C@]4(C)[C@H]3CC[C@]12C)C(C)=O | 144

Now take the following compound into account.
Please report cell viability for the following compound: C[C@H](NC(=O)c1sccc1OCc1ccc(Cl)cc1)c1ccccc1
95.6

* * *

test system: NOMO1; experiment: cell viability relative to DMSO control; higher = less cytotoxic; details: HPLM + 10% dialyzed FBS; 48 h; 0.19 µM
Property: cell viability; scope: individual compounds
Please reply with the bare figure in % and do not write the unit itself.

CC1(C)O[C@@H]2C[C@H]3[C@@H]4C[C@H](F)C5=CC(=O)C=C[C@]5(C)[C@@]4(F)[C@@H](O)C[C@]3(C)[C@]2(C(=O)CO)O1 | 101
COCC1(CO)C(=O)C2CCN1CC2 (centres undefined) | 121
CN(C)[S+](=O)([O-])c1ccc2c(c1)C(=Cc1cc3c([nH]1)CCCC3)C(=O)N2 | 122
Cn1cnc2c(F)c(Nc3ccc(Br)cc3F)c(C(=O)NOCCO)cc21 | 56.4
CCOC(=O)N1CCN(/[N+]([O-])=N/Oc2ccc([N+](=O)[O-])cc2C#N)CC1 | 114

# return recorded cell viability for input C[C@@H]1COCCN1c1cc(C2([S@+](C)(=N)[O-])CC2)nc(-c2ccnc3[nH]ccc23)n1
120

* * *

system: SEM cells; assay: cell viability relative to DMSO control; higher = less cytotoxic; details: RPMI 5 mM glucose + 10% FBS; 48 h; 0.569 µM
Exam item: assign 1 to entries whose cell viability is below 90% and 0 to entries at or above 90%. Note that a value of exactly 90% receives 0.

Known results for compounds:
CC(C)c1nc(CN(C)C(=O)N[C@H](C(=O)N[C@@H](Cc2ccccc2)C[C@H](O)[C@H](Cc2ccccc2)NC(=O)OCc2cncs2)C(C)C)cs1 | 1
CNC(=O)c1ccc(N2C(=S)N(c3cnc(C#N)c(C(F)(F)F)c3)C(=O)C23CCC3)cc1F | 0
CCOC(=O)[C@@H](N)Cc1ccc(-c2cc(O[C@H](c3ccc(Cl)cc3-n3ccc(C)n3)C(F)(F)F)nc(N)n2)cc1.O=C(O)CNC(=O)c1ccccc1 | 0

Strictly below 90%: is that where cell viability of CC(=O)O[C@@]1(CC[C@H]2[C@@H]3\C=C(Cl)/C4=C/C(=O)[C@@H]5C[C@@H]5[C@]4(C)[C@H]3CC[C@]12C)C(C)=O sits?
0

Please let me know if CC(C)OC(=O)C(C(=O)OC(C)C)=C1S\C=C/S1 shows cell viability below 90%.
0

Record C[C@H]1C[C@@H]2[C@H](CC[C@@]3(C)[C@H]2CC[C@]3(OC(C)=O)C(C)=O)[C@@]\4(C)CCC(=O)\C=C14 : is its cell viability strictly below 90%?
1

* * *

test system: NOMO1; test: cell viability relative to DMSO control; higher = less cytotoxic; settings: HPLM + 10% dialyzed FBS; 48 h; 5.12 µM
endpoint-name: cell viability (%)
Answer in %, number only, no unit symbol.

Provide measured cell viability value, entry: CC(C)(O)CC[C@@H](O)[C@](C)(O)[C@H]1CC[C@@]2(O)C/3=C/C(=O)[C@@H]4C[C@@H](O)[C@@H](O)C[C@]4(C)[C@H]3CC[C@]12C
87.4

* * *

Catalogue of compounds with associated AUC of viability dose-response curve
tested on: NOMO1; assay: AUC of viability dose-response curve (% viability x log10 dose units); higher = less sensitive; conditions: RPMI 5 mM glucose + 10% dialyzed FBS; 48 h
Lab note: write the figure by itself, no unit.

Please review the following examples before continuing.
CNCCCC12CCC(c3ccccc31)c1ccccc12 | 411
OC[C@H]1O[C@H]([C@H](O)[C@@H]1O)N2\C=C/C(=O)NC2=O | 455
CNC(=O)c1c(-c2ccc(F)cc2)oc2cc(N(CCO)[S+](C)(=O)[O-])c(C3CC3)cc12 | 425
CCN(CC)CCCCNc1ncc2cc(-c3cc(OC)cc(OC)c3)c(NC(=O)NC(C)(C)C)nc2n1 | 444
S=C(NCc1ccc2c(c1)OCO2)N1CCN(c2ncnc3c2oc2ccccc23)CC1 | 445

# return AUC of viability dose-response curve of O=C1NC(=O)/C(=C/c2ccc3nccc(-c4ccncc4)c3c2)S1 (system: NOMO1)
296

Give AUC of viability dose-response curve for COc1ccc(-c2ccc3ncc4c(c3c2)n(-c2ccc(N3CCNCC3)c(C(F)(F)F)c2)c(=O)n4C)cn1 tested on NOMO1.
218

Write down measured AUC of viability dose-response curve (NOMO1) for this compound. O=C1NC(=O)/C(=C\c2ccc(-c3ccc(F)cc3)o2)S1
444

// fetch AUC of viability dose-response curve for O=C(C=CC#Cc1cccc(N[S+](=O)([O-])c2ccccc2)c1)NO ; system: NOMO1
371

* * *

tested on: NOMO1; assay: cell viability relative to DMSO control; higher = less cytotoxic; settings: RPMI 5 mM glucose + 10% FBS; 48 h; 0.0211 µM
# if measured cell viability < 70%: 1  # else: 0

Here's what some known entries look like.
C[C@](Cc1c[nH]c2ccccc12)(NC(=O)OC1C2CC3CC(C2)CC1C3)C(=O)NC[C@H](NC(=O)CCC(=O)O)c1ccccc1 (some centres not stated) | 0
C[C@@H]1COCCN1c1cc(C2([S@+](C)(=N)[O-])CC2)nc(-c2ccnc3[nH]ccc23)n1 | 0
NC\1=N\C(=O)N(\C=C1)[C@@H]2O[C@H](CO)[C@@H](O)[C@@H]2O | 0
CCOC(=O)N1CCN(/[N+]([O-])=N/Oc2ccc([N+](=O)[O-])cc2C#N)CC1 | 0
CN[C@H]1CCC2=CC(=C(OC)C(=C2C/3=C/C=C(OC)\C(=O)/C=C13)OC)OC | 1
CC(C)C1NC(=O)C(NC(=O)C2=C3\N=C\4/C(=C(C)\C(=O)\C(=C4C(=O)NC5C(C)OC(=O)C(C(C)C)N(C)C(=O)CN(C)C(=O)C6CCCN6C(=O)C(NC5=O)C(C)C)N)OC3=C(C)C=C2)C(C)OC(=O)C(C(C)C)N(C)C(=O)CN(C)C(=O)C7CCCN7C1=O (configuration not stated) | 1

Consider the compound CC(C)(C#N)c1cc(Cn2cncn2)cc(C(C)(C)C#N)c1 . Is its cell viability strictly less than 70%?
0
